target: Ephrin type-A receptor 2 [596-900] (Homo sapiens)
Sequence (P29317 596-900): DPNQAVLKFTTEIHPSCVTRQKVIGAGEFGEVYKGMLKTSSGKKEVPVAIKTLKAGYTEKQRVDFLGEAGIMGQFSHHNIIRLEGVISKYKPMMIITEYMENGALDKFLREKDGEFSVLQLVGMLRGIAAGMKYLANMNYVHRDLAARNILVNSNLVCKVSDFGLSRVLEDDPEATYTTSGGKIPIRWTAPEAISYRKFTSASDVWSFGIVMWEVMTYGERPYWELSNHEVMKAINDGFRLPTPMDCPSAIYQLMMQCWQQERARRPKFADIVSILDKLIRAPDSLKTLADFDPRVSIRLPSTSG
pIC50: −log10 of the molar value.
measure-name: pIC50

INSERT INTO results (molecule_smiles, measured_result) VALUES
  ('Cc1ccc(NC(=O)c2ccc(CN3CC[C@H](N(C)C)C3)c(C(F)(F)F)c2)cc1Nc1ncc(-c2cncnc2)cn1', 7.77);
